Reference source: paper PMC7710018

- protocol: Brain:plasma partitioning (LC-MS/MS)
- Type: in vivo, mouse
- experimental-context: male, C57BL/6, mouse, brain, ip; mice, 50 mg/kg i.p., 1 h; read-out: brain levels
property-measured: concentration at 1 h (nM)
Answers are plain numbers, in nM.

{"compound": "O=C(NCCO)c1cc(C(=O)NCCO)cc(C(=O)NCCO)c1 [LM22A-4, reference compound]", "concentration at 1 h, nM": 200}

Then this compound:
Request: Requested field: concentration at 1 h. Item: "COCCN(C)C(=O)c1cc(C(=O)N(C)CCOC)cc(C(=O)N(C)CCOC)c1"
Response: 227

----------
For each of the compounds below, state its Kp at 1 h.
- protocol: Brain:plasma partitioning (LC-MS/MS)
- Type: in vivo, mouse
- experimental-context: male, C57BL/6, mouse, brain/plasma, ip; mice, 50 mg/kg i.p., 1 h; read-out: brain-to-plasma ratio
One number for each entry.

{"compound": "O=C(NCCO)c1cc(C(=O)NCCO)cc(C(=O)NCCO)c1 [LM22A-4, reference compound]", "property-measured": "Kp at 1 h", "measured": 0.0268}

Then this compound:
Request: Requested field: Kp at 1 h. Item: "COCCN(C)C(=O)c1cc(C(=O)N(C)CCOC)cc(C(=O)N(C)CCOC)c1"
Response: 0.0329

----------
- protocol: Brain:plasma partitioning (LC-MS/MS)
- Assay type: in vivo, mouse
- experimental-context: male, C57BL/6, mouse, plasma, ip; mice, 50 mg/kg i.p., 3 h; read-out: plasma level
property-measured: concentration at 3 h (µM)
Give bare numbers, in µM.

{"compound": "COCCN(C)C(=O)c1cc(C(=O)N(C)CCOC)cc(C(=O)N(C)CCOC)c1 [PTX-BD4-3]", "measured": 361}

Then this compound:
Request: Requested field: concentration at 3 h. Item: O=C(NCCO)c1cc(C(=O)NCCO)cc(C(=O)NCCO)c1 [LM22A-4, reference compound]
Response: 2350

----------
- protocol: Brain:plasma partitioning (LC-MS/MS)
- Assay type: in vivo, mouse
- experimental-context: male, C57BL/6, mouse, brain and plasma, ip, 50 mg/kg, mice, systemic (i.p.) administration
property-measured: half-life

Request: Requested field: half-life. Item: COCCN(C)C(=O)c1cc(C(=O)N(C)CCOC)cc(C(=O)N(C)CCOC)c1 [PTX-BD4-3]
Response: < 3 h

----------
For each of the compounds below, state its Kp at 3 h.
- protocol: Brain:plasma partitioning (LC-MS/MS)
- Assay type: in vivo, mouse
- experimental-context: male, C57BL/6, mouse, brain/plasma, ip; mice, 50 mg/kg i.p., 3 h; read-out: brain-to-plasma ratio
Numbers only.

{"compound": "COCCN(C)C(=O)c1cc(C(=O)N(C)CCOC)cc(C(=O)N(C)CCOC)c1", "Kp at 3 h": 0.271}

Request: Requested field: Kp at 3 h. Item: O=C(NCCO)c1cc(C(=O)NCCO)cc(C(=O)NCCO)c1 [LM22A-4, reference compound]
Response: 0.133
